Reported pKi is given for each of the following compounds.
target: calpain-I isolated from human erythrocytes (Homo sapiens, UniProt P07384); construct: calpain-I—isolated from human erythrocytes; purchased Calbiochem 208713; host or cells: human erythrocytes (tissue isolate); experiment: Calpain I kinetic fluorescence enzyme inhibition assay; type: biochemical; conditions: apparent Ki from IC50 by Cheng-Prussoff; average of 2 to 4 dose-effect plots
pKi: −log10 of the molar value.

Record excerpt, results attached:
>  <Compound>
N#Cc1ccc(-c2ccn(-c3ncccc3C(=O)NC(Cc3ccccc3)C(=O)C(N)=O)n2)cc1 (stereo not shown) [Example 62]

>  <pKi>
7.00 to 7.40

$$$$
>  <Compound>
NC(=O)C(=O)C(Cc1ccccc1)NC(=O)c1cc(Cl)cnc1-n1ccc(-c2ccccc2)n1 (stereo not shown) [Example 27]

>  <pKi>
≥ 7.40

$$$$

stdin: Consider the compound NC(=O)C(=O)C(Cc1ccccc1)NC(=O)c1cccnc1-n1cc2c(n1)-c1ccccc1S(=O)(=O)C2 (stereo not shown) [Example 174] and give its measured pKi.
stdout: ≥ 7.40

stdin: Quick one: CCCCC(NC(=O)c1cc(Cl)cnc1-n1ccc(-c2ccccc2)n1)C(=O)C(N)=O (stereo not shown) [Example 28]
stdout: ≥ 7.40

* * *

Biological target: calpain-I isolated from human erythrocytes (Homo sapiens)
Construct: calpain-I—isolated from human erythrocytes
Sequence (P07384 1-714): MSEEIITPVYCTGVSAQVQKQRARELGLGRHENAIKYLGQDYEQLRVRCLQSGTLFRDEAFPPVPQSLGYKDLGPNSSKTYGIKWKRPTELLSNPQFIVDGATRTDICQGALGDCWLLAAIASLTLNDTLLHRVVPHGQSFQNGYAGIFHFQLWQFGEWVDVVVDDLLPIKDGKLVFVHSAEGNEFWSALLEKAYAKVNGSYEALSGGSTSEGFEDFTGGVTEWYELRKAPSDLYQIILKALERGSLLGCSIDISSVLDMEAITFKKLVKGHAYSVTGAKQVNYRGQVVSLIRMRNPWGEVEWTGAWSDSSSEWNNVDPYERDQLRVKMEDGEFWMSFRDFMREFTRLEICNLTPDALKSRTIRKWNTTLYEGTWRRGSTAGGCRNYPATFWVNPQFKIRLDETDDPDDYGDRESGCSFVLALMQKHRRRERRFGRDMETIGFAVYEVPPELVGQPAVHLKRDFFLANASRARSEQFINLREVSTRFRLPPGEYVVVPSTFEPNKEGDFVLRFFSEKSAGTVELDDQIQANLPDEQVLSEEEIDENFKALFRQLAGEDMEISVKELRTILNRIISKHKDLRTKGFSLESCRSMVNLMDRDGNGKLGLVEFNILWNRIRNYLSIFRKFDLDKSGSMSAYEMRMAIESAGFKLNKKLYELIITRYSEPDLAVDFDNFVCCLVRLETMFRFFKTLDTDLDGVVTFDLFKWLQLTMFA
Sequence (P04632 1-268 partner): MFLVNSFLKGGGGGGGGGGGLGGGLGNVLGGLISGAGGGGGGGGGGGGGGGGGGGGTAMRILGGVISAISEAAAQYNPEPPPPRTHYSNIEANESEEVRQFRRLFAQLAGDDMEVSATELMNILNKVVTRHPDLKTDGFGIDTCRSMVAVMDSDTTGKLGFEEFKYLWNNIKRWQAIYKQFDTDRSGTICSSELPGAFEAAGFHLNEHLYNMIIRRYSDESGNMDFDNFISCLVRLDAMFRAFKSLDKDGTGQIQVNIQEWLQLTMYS
Test: Calpain I kinetic fluorescence enzyme inhibition assay
Settings: apparent Ki from IC50 by Cheng-Prussoff; average of 2 to 4 dose-effect plots
Endpoint label: Ki

>  <Molecule>
NC(=O)C(=O)C(Cc1ccccc1)NC(=O)c1cccnc1-n1ccc(-c2ccc(F)cc2F)n1 (stereo not shown)

>  <Ki>
40 to 100 nM

$$$$
>  <Molecule>
NC(=O)C(=O)C(Cc1ccccc1)NC(=O)c1cccnc1-n1ccc(-c2cccs2)n1 (stereo not shown)

>  <Ki>
≤ 40 nM

$$$$
>  <Molecule>
NC(=O)C(=O)C(Cc1ccc(OC(F)(F)F)cc1)NC(=O)c1cccnc1-n1ccc(-c2ccc(F)cc2)n1 (stereo not shown)

>  <Ki>
40 to 100 nM

$$$$
>  <Molecule>
NC(=O)C(=O)C(Cc1ccccc1)NC(=O)c1cccnc1-n1ccc(-c2c(Cl)cccc2Cl)n1 (stereo not shown)

>  <Ki>
≤ 40 nM

$$$$

stdin: Consider the molecule NC(=O)C(=O)C(Cc1ccccc1)NC(=O)c1cccnc1-n1cc2c(n1)-c1ccccc1SC2 (stereo not shown) and give its measured Ki.
stdout: ≤ 40 nM

stdin: Quick one: NC(=O)C(=O)C(Cc1ccccc1)NC(=O)c1cccnc1-n1cnc(-c2ccc(Cl)cc2)c1 (stereo not shown)
stdout: ≤ 40 nM

stdin: Quick one: NC(=O)C(=O)C(Cc1ccccc1)NC(=O)c1cccnc1-n1ccc(-c2ccc(N3CCOCC3)cc2Cl)n1 (stereo not shown)
stdout: ≤ 40 nM
